Target: T1, human corticotrophin releasing hormone receptor type 2 (CRHR2) (human, UniProt Q13324 1-411)
T1 sequence (looked up): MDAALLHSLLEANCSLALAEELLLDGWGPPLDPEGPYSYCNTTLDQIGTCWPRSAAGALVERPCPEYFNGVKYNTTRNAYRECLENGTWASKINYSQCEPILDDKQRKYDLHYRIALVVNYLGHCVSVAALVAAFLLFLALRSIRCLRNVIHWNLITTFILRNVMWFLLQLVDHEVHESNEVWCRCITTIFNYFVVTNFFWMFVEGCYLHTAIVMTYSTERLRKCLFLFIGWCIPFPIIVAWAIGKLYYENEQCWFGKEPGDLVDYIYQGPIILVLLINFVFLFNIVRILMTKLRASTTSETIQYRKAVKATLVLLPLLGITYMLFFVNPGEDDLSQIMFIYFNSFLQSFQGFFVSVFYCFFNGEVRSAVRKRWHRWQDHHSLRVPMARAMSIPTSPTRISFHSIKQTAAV
Experiment: cell-based or functional assay
Where no end group is shown, it is not given here.
List of pA50 values.

Sample answers from the record:
{"BINDER": "KFTLSLDVPTNIMNLLFNIAKAKNLRAQAAANAHLMAQI-NH2 [Stresscopin-like peptide with shortened amino acid sequence, 39 aa, SEQ ID NO: 107]", "pA50": "9.25 -log10(M)"}
{"BINDER": "LSLDVPTNIMNLLFNIAKAKNLRAQAAANAHLMAQI-NH2 [Stresscopin-like peptide with shortened amino acid sequence, 36 aa, SEQ ID NO: 109]", "pA50": "7.34 -log10(M)"}
{"BINDER": "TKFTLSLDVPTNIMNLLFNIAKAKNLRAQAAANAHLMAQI-OH [non-amidated h-SCP]", "pA50": "7.1 -log10(M)"}

We now examine a further binder.
# input Assign pA50 to the following record: TLSLDVPTNIMNLLFNIAKAKNLRAQAAANAHLMAQI-NH2 [Stresscopin-like peptide with shortened amino acid sequence, 37 aa, SEQ ID NO: 108]
# output 8.49 -log10(M)
